# assay-system: Kappa-type opioid receptor (Homo sapiens, UniProt P41145)
# Sequence (P41145 whole entry): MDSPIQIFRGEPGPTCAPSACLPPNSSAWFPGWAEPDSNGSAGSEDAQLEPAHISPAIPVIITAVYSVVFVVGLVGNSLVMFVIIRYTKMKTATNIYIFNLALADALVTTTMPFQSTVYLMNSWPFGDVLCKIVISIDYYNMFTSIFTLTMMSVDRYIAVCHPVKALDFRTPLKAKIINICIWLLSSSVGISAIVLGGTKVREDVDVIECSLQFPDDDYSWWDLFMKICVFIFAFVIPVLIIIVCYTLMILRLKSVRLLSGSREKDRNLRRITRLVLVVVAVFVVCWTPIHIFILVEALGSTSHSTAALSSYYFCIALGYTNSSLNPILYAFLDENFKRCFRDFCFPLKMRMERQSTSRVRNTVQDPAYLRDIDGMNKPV
# assay-remarks: Agonistic activity of the kappa-opioid receptors: Forskolin can stimulate the release of cAMP from HEK293 cells with high expression of human κ (or μ, or δ)-opioid receptors. […] The efficacy of the compounds of the invention as κ-opioid receptor agonists was determined by measuring the ability of the compounds of Examples to inhibit adenylate cyclase activity.Cell culture: The HEK293 cell line highly expressing human κ (or μ, or δ)-opioid receptor were cultured in DMEM medium containing 10% FBS.Stimulation: the test compound was 4-fold diluted in a gradient manner to obtain 10 concentrations, and 50 nl of each was transferred to a 384-well plate, and then 10 nl Forskolin was added; the cells were digested, re-suspended, and counted; and then 10 μl of cell suspension (5×10^5 cell/mL) was added, and the cells were mixed gently, and incubated at 23° C. for 60 minutes.Detection: cAMP Assay Kit (Cisbio) was used, cAMPD2 and Anti-cAMP conjugate were added, and the resultant mixture was incubated for 1 h at room temperature. The plate was read using envision (Perkin Elmer) and EC50 was obtained by means of fitting with a four-parameter equation.
assay-readout: pEC50
// returns pEC50 (minus log10 of molar concentration), number only

Problem: Fill in: pEC50 on Kappa-type opioid receptor (Homo sapiens, UniProt P41145), entry CC(C)C[C@@H](NC(=O)[C@@H](Cc1ccccc1)NC(=O)[C@H](N)Cc1ccccc1)C(=O)N[C@H](CCCCN)C(=O)N1CCC[C@H]1B(O)O
Solution: 12.00

Cited source: ChEMBL document CHEMBL5729699
